test system: CCRIS mutagenicity, Ames/micronucleus/aberration tests; test: CCRIS mutagenicity studies; conditions: Test System: AMES SALMONELLA TYPHIMURIUM; Strain/Indicator: TA98; Metabolic Activation: RAT, LIVER, S-9, AROCLOR; Method: STANDARD PLATE
Active and inactive are the calls of the source. The rule behind the calls is not given here.
Measured Property: mutagenic call

Below: 5 compounds and their reported mutagenic call.
N#Cc1ccc(/C=C/c2ccc([N+](=O)[O-])cc2)cc1 :: active; positive
CC(C)c1ccc(/C=C/c2ccc([N+](=O)[O-])cc2)cc1 :: active; positive
O=[N+]([O-])c1ccc2c(c1)Oc1ccccc1O2 :: active; positive
O=[N+]([O-])c1c(Cl)cc2c(c1Cl)Oc1cc(Cl)c(Cl)cc1O2 :: inactive; negative
Cc1ccc(C)cc1 :: inactive; negative

Incoming: Which mutagenic call value is on record for CCC(C)c1ccc(/C=C/c2ccc(N)cc2)cc1 (stereo unspecified) ?
Outgoing: active; positive

----------
system: CCRIS mutagenicity, Ames/micronucleus/aberration tests; test: CCRIS mutagenicity studies; details: Test System: AMES SALMONELLA TYPHIMURIUM; Strain/Indicator: TA7006; Metabolic Activation: RAT LIVER S-9, AROCLOR 1254; Method: FLUCTUATION (MICROTITER)
Activity calls are given as the source filed them. The rule behind the calls is not given here.
Respond only with the outcome that fits, drawn from YES (active), NO (inactive)

Incoming: Could you check what this test reported for "CS(C)=O" ?
Outgoing: NO

Incoming: Could you check what this test reported for CCC1CO1 (centres undefined) ?
Outgoing: NO

Incoming: Could you check what this test reported for "CC(C)(OO)c1ccccc1" ?
Outgoing: YES

Incoming: Could you check what this test reported for "CC(C)CON=O" ?
Outgoing: NO

----------
Test system: CCRIS mutagenicity, Ames/micronucleus/aberration tests
Experiment: CCRIS mutagenicity studies
Conditions: Test System: AMES SALMONELLA TYPHIMURIUM; Strain/Indicator: TA100; Metabolic Activation: NONE; Method: STANDARD PLATE
Text: The CCRIS database contains chemical records with carcinogenicity, mutagenicity, tumor promotion, and tumor inhibition test results. It was developed by the National Cancer Institute (NCI). Data are derived from studies cited in primary journals, current awareness tools, NCI reports, and other sources. Test results have been reviewed by experts in carcinogenesis and mutagenesis. CCRIS provides historical information from the years 1985 - 2011. It is no longer updated. […]
Active and inactive are the calls of the source. How the calls were made is not given here.
Respond only with the outcome that fits, drawn from Yes = active, No = inactive

Incoming: Could you check what this test reported for "C=CC(=O)OCCCCC" ?
Outgoing: No

Incoming: Could you check what this test reported for "Nc1c(O)cccc1[N+](=O)[O-]" ?
Outgoing: No

Incoming: Could you check what this test reported for O=C(Nc1ccccc1)C1CO1 (stereo not given) ?
Outgoing: Yes

Incoming: Could you check what this test reported for "Cc1ccc(N=Nc2c(O)c(C(=O)O)cc3ccccc23)cc1S(=O)(=O)O" ?
Outgoing: No

Incoming: Could you check what this test reported for "CC(=O)Nc1ccc(Oc2c(Cl)cc(Cl)cc2Cl)cc1" ?
Outgoing: No

Incoming: Could you check what this test reported for "Nc1ncn([C@@H]2O[C@H](CO)[C@@H](O)[C@H]2O)c(=O)n1" ?
Outgoing: Yes

Incoming: Could you check what this test reported for "OCCNc1ccc(N=Nc2ccc(NCCO)cc2)cc1" ?
Outgoing: No

Incoming: Could you check what this test reported for "CC[C@H](C)[C@@H]([C@@H](CC(=O)N1CCC[C@H]1[C@H](OC)[C@@H](C)C(=O)N[C@@H](Cc1ccccc1)c1nccs1)OC)N(C)C(=O)[C@@H](NC(=O)[C@H](C(C)C)N(C)C)C(C)C" ?
Outgoing: No

Incoming: Could you check what this test reported for "[O]=[Zr]" ?
Outgoing: No

Incoming: Could you check what this test reported for "Nc1nc(NO)c2ncn([C@@H]3O[C@H](CO)[C@@H](O)[C@H]3O)c2n1" ?
Outgoing: Yes

Incoming: Could you check what this test reported for "O=C(O)C(Cl)=C(C(Cl)Cl)C(Cl)Cl" ?
Outgoing: Yes

Incoming: Could you check what this test reported for "Nc1ccc2c(c1)C(=O)c1ccc(N)cc1C2=O" ?
Outgoing: No

Incoming: Could you check what this test reported for "O=[N+]([O-])c1cccc2c1[nH]c1ccccc12" ?
Outgoing: No

Incoming: Could you check what this test reported for "COc1ccccc1NC(=O)c1csc([N+](=O)[O-])c1" ?
Outgoing: Yes

Incoming: Could you check what this test reported for "CC(C)N(C(=O)SCC(Cl)=C(Cl)Cl)C(C)C" ?
Outgoing: No

Incoming: Could you check what this test reported for "O[C@H]1C=Cc2ncccc2[C@@H]1O" ?
Outgoing: No

Incoming: Could you check what this test reported for "C=C(C)C(=O)OCCO" ?
Outgoing: No

Incoming: Could you check what this test reported for "N[C@@H](Cc1ccccc1)C(=O)O" ?
Outgoing: No

Incoming: Could you check what this test reported for CC1(c2ccccc2)C(=O)c2ccccc2N1[O] (stereo not given) ?
Outgoing: No

Incoming: Could you check what this test reported for "CC(=O)Nc1ccc(Cc2ccc(NC(C)=O)cc2)cc1" ?
Outgoing: No

Incoming: Could you check what this test reported for "CCOC(=O)CNC(=O)CCCCSc1ncnc2nc[nH]c12" ?
Outgoing: No

Incoming: Could you check what this test reported for "Nc1cc(Cl)cc(Cl)c1" ?
Outgoing: No

Incoming: Could you check what this test reported for NCCc1c[nH]c2ccc(O)cc12 (tested in a mixture with another compound) ?
Outgoing: No

Incoming: Could you check what this test reported for C=C(C)C1CCC2(C)OC2C1 (stereo not given) ?
Outgoing: No

Incoming: Could you check what this test reported for "O=[N+]([O-])c1cc(Cl)cc(Sc2cc(Cl)cc([N+](=O)[O-])c2O)c1O" ?
Outgoing: No

Sourced from PubChem BioAssay AID1259407
